- Protocol Text: Half-life in Wistar rat at 0.3 mg/kg, iv administered as bolus dose by LC-MS analysis
- Assay type: ADME, organism-based
- Condition Label: in vivo
Experimental Endpoint: half-life (h)

// below: answered molecules
- CCC(NC(=O)c1cn(-c2c(F)cc(F)cc2F)c2nc(N3C[C@@H](O)[C@H](O)C3)ccc2c1=O)C(F)(F)C(F)(F)F (single isomer, unassigned; diastereomer 1): 2.1
- CCC(NC(=O)c1cn(-c2c(F)cc(F)cc2F)c2nc(N3C[C@@H](O)[C@H](O)C3)c(F)cc2c1=O)C(F)(F)C(F)(F)F (single isomer, unassigned; diastereomer 1): 1.8

I. CC(NC(=O)c1cn(-c2c(F)cc(F)cc2F)c2nc(N3C[C@@H](O)[C@H](O)C3)ccc2c1=O)C(F)(F)C(F)(F)F (single isomer, unassigned; diastereomer 1)
II. CC[C@@H](NC(=O)c1cn(-c2c(F)cccc2F)c2nc(N3C[C@@H](O)CC3=O)ccc2c1=O)C(F)(F)F
III. O=C(N[C@@H](C1CC1)C(F)(F)F)c1cn(-c2c(F)cc(F)cc2F)c2nc(N3C[C@@H](O)[C@H](O)C3)ccc2c1=O
## Input Hey, can you sort those molecules up there by half-life, smallest first? Answer format: list of labels, ordered as asked.
## Output II, I, III
